# credit: patent US20250179059A1

Here, each record is paired with measured IC50 data.
Target: human BRD4 bromodomain II (Homo sapiens)
Construct: human BRD4 bromodomain II [based on Genbank NM_058243, residues 349-460]; host or cells: E. coli
Assay: Bromodomain binding assay (AlphaScreen), BRD4 BDII
Settings: AlphaScreen assay, Table C2; read-out: BRD4 BDII IC50

INPUT: Name the recorded IC50 for Cn1ccn(-c2ccc(-c3cc(F)cc(-c4ccnc(N5CCN(C6CC6)CC5)c4)c3O)cc2Cl)c1=O [Example 531] .
OUTPUT: 1 to 10 nM

INPUT: Suppose we examine the compound Cn1ccn(-c2ccc(-c3cc(F)cc(-c4ccnc(N5CCC(O)(C6CC6)C5)c4)c3O)cc2Cl)c1=O (stereo not shown) [Example 718] ; what IC50 value has been reported?
OUTPUT: 0.01 to 1 nM
